# Target or test system: enzyme I (EI) (Escherichia coli, UniProt P08839, R465A)
# Measurement protocol: NMR chemical shift titration
pKd: −log10 of the molar value.
Value kind: pKd

In: Request body: readout pKd, system enzyme I (EI) (Escherichia coli, UniProt P08839, R465A), query O=C(O)CCC(=O)C(=O)O [αKG, α-ketoglutarate] . Return the value.
Out: ~2.17

====

# Target or test system: enzyme I (EI) (Escherichia coli)
Value kind: Kd

In: Request body: readout Kd, system enzyme I (EI) (Escherichia coli), query O=C(O)CCC(=O)C(=O)O [αKG, α-ketoglutarate] . Return the value.
Out: ~2200 µM

Where do the numbers come from? From paper PMC3735840.
